Target: CD28 (Homo sapiens, UniProt P10747)
Experiment: Jurkat/IL2 + K562/OKT3/PD-L1 reporter assay
Type: cell-based
Parameters: host or cells: Jurkat cells expressing an IL-2-luciferase reporter
Conditions: Table E8; K562/OKT3/PD-L1 aAPC; 50 nM
Measured parameter: Relative Luciferase Units (RLU), CD80-Fe Cone 50 nM
Quick note: give the figure in RLU, leave out the unit.

Molecule: E35D/A71G (protein, UniProt P33681 35-288, looked up, variant E35D A71G) T-lymphocyte activation …: VIHVTKEVKEVATLSCGHNVSVEELAQTRIYWQKDKKMVLTMMSGDMNIWPEYKNRTIFDITNNLSIVILGLRPSDEGTYECVVLKYEKDAFKREHLAEVTLSVKADFPTPSISDFEIPTSNIRRIICSTSGGFPEPHLSWLENGEELNAINTTVSQDPETELYAVSSKLDFNMTTNHSFMCLIKYGHLRVNQTFNWNTTKQEHFPDNLLPSWAITLISVNGIFVICCLTYCFAPRCRERRRNERLRRESVRPV
Experimental result: 1190

Pending molecule:
molecule E35D/M47L/A71G/L85Q (protein, UniProt P33681 35-288, looked up, variant E35D M47L A71G L85Q) T-lymphocyte activation …: VIHVTKEVKEVATLSCGHNVSVEELAQTRIYWQKDKKMVLTMMSGDLNIWPEYKNRTIFDITNNLSIVILGLRPSDEGTYECVVQKYEKDAFKREHLAEVTLSVKADFPTPSISDFEIPTSNIRRIICSTSGGFPEPHLSWLENGEELNAINTTVSQDPETELYAVSSKLDFNMTTNHSFMCLIKYGHLRVNQTFNWNTTKQEHFPDNLLPSWAITLISVNGIFVICCLTYCFAPRCRERRRNERLRRESVRPV , Relative Luciferase Units (RLU), CD80-Fe Cone 50 nM observed: 1256
